Exercise: for every item that follows, state its recorded self-splicing fitness (ln).
assay: self-splicing fitness, log relative to wild type (ln ratio); higher = more splicing; Tetrahymena group I intron in knt gene, E. coli kanamycin selection, DiMSum; sequences stand for … in CUCUCU…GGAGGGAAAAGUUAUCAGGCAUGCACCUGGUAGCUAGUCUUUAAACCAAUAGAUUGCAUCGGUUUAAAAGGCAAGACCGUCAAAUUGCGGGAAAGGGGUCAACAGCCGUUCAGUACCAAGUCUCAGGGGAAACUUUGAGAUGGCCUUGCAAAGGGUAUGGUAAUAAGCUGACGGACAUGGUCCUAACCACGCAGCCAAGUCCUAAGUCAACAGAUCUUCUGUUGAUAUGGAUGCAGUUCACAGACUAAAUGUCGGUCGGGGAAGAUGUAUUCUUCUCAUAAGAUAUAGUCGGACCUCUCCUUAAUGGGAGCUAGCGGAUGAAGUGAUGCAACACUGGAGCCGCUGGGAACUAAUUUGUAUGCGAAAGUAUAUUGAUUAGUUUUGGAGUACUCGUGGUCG; settings: 30 °C;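 further: selection with 25 µg/mL kanamycin versus none on LB agar overnight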
Lab note: jot down the number only; don't add units.

self-splicing fitness (ln) for `UACAAGCAAUAUUACGGUGC` is -3.55

The sequence `UUUAAGCAAUAUUACGCCUA` showed self-splicing fitness (ln) equal to -1.34

// self-splicing fitness (ln) lookup, sequence = `CAGCAGCAAUAUUACGCCCU` , result: -1.89

get_value(item= `GCCUAGCAAUAUUACGGGAG` , readout=self-splicing fitness (ln)) returns -0.724

// self-splicing fitness (ln) value for `CUUGAGCAAUAUUACGUAGC` : -3.2

Reported self-splicing fitness (ln) ( `CUAUAGCAAUAUUACGACGG` ) = 0.143

# sequence `UCCUAGCAAUAUUACGCAAA` ; its self-splicing fitness (ln) = -2.95

Looking up `UUGGAGCAAUAUUACGGGCG` , I see its self-splicing fitness (ln) listed as -3.99

Data point: `AGUGAGCAAUAUUACGUUUU` ; self-splicing fitness (ln) = -3.26

In plain terms, `UGCGAGCAAUAUUACGGUCG` has a documented self-splicing fitness (ln) of -2.27

Measured self-splicing fitness (ln), `AACUAGCAAUAUUACGUUGU` : -3.51

Reported self-splicing fitness (ln) of `UAAAAGCAAUAUUACGGUCC` : -2.84

According to the records, this sequence `AAGAAGCAAUAUUACGAUAG` displays self-splicing fitness (ln) of -3.6

Value of self-splicing fitness (ln) reported for the sequence `GCGUAGCAAUAUUACGGUUG` is -2.96

For `AAGAAGCAAUAUUACGUGUG` the sequence record lists self-splicing fitness (ln) as -2.3

For this sequence ( `ACGGAGCAAUAUUACGCGGA` ), measured self-splicing fitness (ln) is -3.41
